Ratio CC50/IC50 values by entry
procedure_summary: Selectivity index, ratio of CC50 for mouse J774 cells to IC50 for promastigote form of Leishmania amazonensis MHOM/Br/79/Maria
Format: functional

Solved cases below.
CC(C)c1cc2c(cc1[N+](=O)[O-])[C@@]1(C)CCC[C@@](C)(CNC(=O)c3ccccc3)[C@@H]1CC2 : >10
CC(=O)NC[C@]1(C)CCC[C@]2(C)c3ccc(C(C)C)cc3-c3[nH]c4ccc(F)cc4c3[C@@H]12 : 7.2
CC(C)c1cc2c(cc1[N+](=O)[O-])[C@@]1(C)CCC[C@@](C)(CNC(=O)c3ccccc3)[C@@H]1CC2=O : >16

Prompt: // Ratio CC50/IC50 lookup, key: CC(C)c1ccc2c(c1)C(=O)C[C@H]1[C@](C)(CNC(=O)c3ccccc3)CCC[C@]21C
Response: >41

Prompt: // Ratio CC50/IC50 lookup, key: CCCCCCCCCCCCCCCCOP(=O)([O-])OCC[N+](C)(C)C [MILTEFOSINE]
Response: 2.9

Prompt: // Ratio CC50/IC50 lookup, key: CC(C)c1ccc2c(c1)CC[C@H]1[C@](C)(CNC(=O)c3ccccc3)CCC[C@]21C
Response: >54

---

procedure_summary: Selectivity index, ratio of CC50 for mouse J774 cells to IC50 for promastigote form of Leishmania donovani MHOM/IN/80/DD8
Format: functional
quantity_measured: Ratio CC50/IC50

CC(C)c1ccc2c(c1)C(=O)C[C@H]1[C@](C)(CNC(=O)c3ccccc3)CCC[C@]21C : >50

Prompt: // Ratio CC50/IC50 lookup, key: CC(C)c1ccc2c(c1)CC[C@H]1[C@](C)(CNC(=O)c3ccccc3)CCC[C@]21C
Response: >90

Prompt: // Ratio CC50/IC50 lookup, key: CC(=O)NC[C@]1(C)CCC[C@]2(C)c3ccc(C(C)C)cc3-c3[nH]c4ccc(F)cc4c3[C@@H]12
Response: 10.3

Prompt: // Ratio CC50/IC50 lookup, key: CC(C)c1cc2c(cc1[N+](=O)[O-])[C@@]1(C)CCC[C@@](C)(CNC(=O)c3ccccc3)[C@@H]1CC2=O
Response: >37

Prompt: // Ratio CC50/IC50 lookup, key: CCCCCCCCCCCCCCCCOP(=O)([O-])OCC[N+](C)(C)C
Response: 909

Prompt: // Ratio CC50/IC50 lookup, key: CC(C)c1cc2c(cc1[N+](=O)[O-])[C@@]1(C)CCC[C@@](C)(CNC(=O)c3ccccc3)[C@@H]1CC2
Response: >62

---

Ratio CC50/IC50 values by entry
procedure_summary: Selectivity index, ratio of CC50 for mouse J774 cells to IC50 for promastigote form of Leishmania infantum MCAN/ES/96/BCN150
Type: functional

Solved cases below.
CCCCCCCCCCCCCCCCOP(=O)([O-])OCC[N+](C)(C)C : 40.1
CC(C)c1cc2c(cc1[N+](=O)[O-])[C@@]1(C)CCC[C@@](C)(CNC(=O)c3ccccc3)[C@@H]1CC2 : >18
CC(C)c1ccc2c(c1)C(=O)C[C@H]1[C@](C)(CNC(=O)c3ccccc3)CCC[C@]21C : >23
CC(=O)NC[C@]1(C)CCC[C@]2(C)c3ccc(C(C)C)cc3-c3[nH]c4ccc(F)cc4c3[C@@H]12 : 19.2
CC(C)c1cc2c(cc1[N+](=O)[O-])[C@@]1(C)CCC[C@@](C)(CNC(=O)c3ccccc3)[C@@H]1CC2=O : >8

Prompt: // Ratio CC50/IC50 lookup, key: CC(C)c1ccc2c(c1)CC[C@H]1[C@](C)(CNC(=O)c3ccccc3)CCC[C@]21C
Response: >64

Values were extracted from ChEMBL document CHEMBL3856220.
